Values from patent US8414660B2

- measuredOn: LccA isolated from Hfx. volcanii SB01 (Haloferax volcanii)
- Construct: made in house; host or cells: Haloferax volcanii SB01 (H26 carrying plasmid pJAM822), secreted into culture broth
- Sequence (D4GPK6 32-579): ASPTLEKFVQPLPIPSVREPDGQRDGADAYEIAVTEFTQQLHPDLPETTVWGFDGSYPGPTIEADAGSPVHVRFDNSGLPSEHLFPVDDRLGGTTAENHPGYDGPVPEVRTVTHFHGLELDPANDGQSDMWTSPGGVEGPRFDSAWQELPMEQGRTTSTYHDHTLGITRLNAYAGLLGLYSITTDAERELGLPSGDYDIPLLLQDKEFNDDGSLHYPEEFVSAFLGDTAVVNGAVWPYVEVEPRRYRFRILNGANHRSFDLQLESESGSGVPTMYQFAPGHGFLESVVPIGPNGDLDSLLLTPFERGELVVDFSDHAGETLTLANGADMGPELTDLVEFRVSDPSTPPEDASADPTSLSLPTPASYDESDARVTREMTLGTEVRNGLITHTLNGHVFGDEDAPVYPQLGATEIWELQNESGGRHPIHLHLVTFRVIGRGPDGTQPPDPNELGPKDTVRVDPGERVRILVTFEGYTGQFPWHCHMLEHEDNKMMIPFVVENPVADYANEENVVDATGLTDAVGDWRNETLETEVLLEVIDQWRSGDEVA
- measurementNotes: biochemical
- runParameters: compound 1 mM, 10 min at 45° C.
readoutType: Relative Activity of LccA

{"compound": "c1cnc2c(c1)ccc1cccnc12", "measuredOn": "LccA isolated from Hfx. volcanii SB01 (Haloferax volcanii)", "readoutType": "Relative Activity of LccA", "result": "85.3 ± 3.4%"}
{"compound": "NC(N)=S", "measuredOn": "LccA isolated from Hfx. volcanii SB01 (Haloferax volcanii)", "readoutType": "Relative Activity of LccA", "result": "96.5 ± 3.9%"}
{"compound": "O[C@@H](CS)[C@@H](O)CS (racemic)", "measuredOn": "LccA isolated from Hfx. volcanii SB01 (Haloferax volcanii)", "readoutType": "Relative Activity of LccA", "result": "u.d."}
{"compound": "c1ccc(-c2ccccn2)nc1", "measuredOn": "LccA isolated from Hfx. volcanii SB01 (Haloferax volcanii)", "readoutType": "Relative Activity of LccA", "result": "86.6 ± 3.3%"}
